Every entry's value here was drawn from ChEMBL document CHEMBL1144682.

Experiment: Solubility in water
Type: physicochemical
Details: water
solubility by entry:
experimental-readout: solubility (µg/mL)

[[record]]
compound = "O=C(OC[C@@H](O)[C@H](O)CO)c1nn(Cc2cc(Cl)cc(Cl)c2)c2ccccc12"
experimental_readout = "solubility"
assay_result = 1.2

[[record]]
compound = "O=C(OCC(O)CO)c1nn(Cc2cc(Cl)cc(Cl)c2)c2ccccc12 (centres undefined)"
experimental_readout = "solubility"
assay_result = 0.51

[[record]]
compound = "O=C(OC[C@H]1O[C@@H](O)[C@H](O)[C@H]1O)c1nn(Cc2cc(Cl)cc(Cl)c2)c2ccccc12"
experimental_readout = "solubility"
assay_result = 1.3

[[record]]
compound = "O=C(O[C@@H]1[C@@H](O)[C@H](O)O[C@H](CO)[C@H]1O)c1nn(Cc2cc(Cl)cc(Cl)c2)c2ccccc12"
experimental_readout = "solubility"
assay_result = 118


* * *

Assay: Solubility in water
Assay type: physicochemical
Settings: water
solubility by entry:
experimental-readout: solubility

[[record]]
molecule = "O=C(OC[C@H]1OC(O)[C@H](O)[C@@H](O)[C@H]1O)c1nn(Cc2cc(Cl)cc(Cl)c2)c2ccccc12 (stereo partly drawn)"
assay_result = "84.3 µg/mL"

[[record]]
molecule = "O=C(O)c1nn(Cc2ccc(Cl)cc2Cl)c2ccccc12 [LONIDAMINE]"
assay_result = "17 µg/mL"

[[record]]
molecule = "O=C(O[C@@H]([C@H](O)[C@H](O)CO)[C@H](O)CO)c1nn(Cc2cc(Cl)cc(Cl)c2)c2ccccc12"
assay_result = "137 µg/mL"


* * *

Assay: Partition coefficient, log P of the compound
Type: physicochemical
Conditions: octanol/water
# if value of logP reaches 3, tag condition met; if it stays below, tag condition not met

[[record]]
compound = "O=C(O)c1nn(Cc2ccc(Cl)cc2Cl)c2ccccc12 [LONIDAMINE]"
class_assignment = "condition not met"

[[record]]
compound = "O=C(OC[C@H]1OC(O)[C@H](O)[C@@H](O)[C@H]1O)c1nn(Cc2cc(Cl)cc(Cl)c2)c2ccccc12 (some centres not stated)"
class_assignment = "condition not met"

[[record]]
compound = "O=C(O[C@@H]([C@H](O)[C@H](O)CO)[C@H](O)CO)c1nn(Cc2cc(Cl)cc(Cl)c2)c2ccccc12"
class_assignment = "condition not met"

[[record]]
compound = "O=C(O[C@@H]1[C@@H](O)[C@H](O)O[C@H](CO)[C@H]1O)c1nn(Cc2cc(Cl)cc(Cl)c2)c2ccccc12"
class_assignment = "condition not met"

[[record]]
compound = "O=C(OC[C@H]1O[C@@H](O)[C@H](O)[C@H]1O)c1nn(Cc2cc(Cl)cc(Cl)c2)c2ccccc12"
class_assignment = "condition met"

[[record]]
compound = "O=C(OCC(O)CO)c1nn(Cc2cc(Cl)cc(Cl)c2)c2ccccc12 (configuration not stated)"
class_assignment = "condition met"


* * *

Test: Stability in rat plasma assessed as half life of hydrolysis
Format: ADME, cell-free
experimental-readout: half-life (min)

[[record]]
compound = "O=C(O[C@@H]([C@H](O)[C@H](O)CO)[C@H](O)CO)c1nn(Cc2cc(Cl)cc(Cl)c2)c2ccccc12"
unit_symbol = "min"
assay_result = 130

[[record]]
compound = "O=C(OC[C@H]1OC(O)[C@H](O)[C@@H](O)[C@H]1O)c1nn(Cc2cc(Cl)cc(Cl)c2)c2ccccc12 (stereo partly drawn)"
unit_symbol = "min"
assay_result = 59.7

[[record]]
compound = "O=C(O[C@@H]1[C@@H](O)[C@H](O)O[C@H](CO)[C@H]1O)c1nn(Cc2cc(Cl)cc(Cl)c2)c2ccccc12"
unit_symbol = "min"
assay_result = 32.1

